Just for reference, paper PMC6366710 is where these values come from.

Entries and their Ki values follow.
Target: PfTMK (Plasmodium falciparum thymidylate kinase) (Plasmodium falciparum, UniProt Q8I4S1)
Construct: natural dimer
Sequence (Q8I4S1 1-210): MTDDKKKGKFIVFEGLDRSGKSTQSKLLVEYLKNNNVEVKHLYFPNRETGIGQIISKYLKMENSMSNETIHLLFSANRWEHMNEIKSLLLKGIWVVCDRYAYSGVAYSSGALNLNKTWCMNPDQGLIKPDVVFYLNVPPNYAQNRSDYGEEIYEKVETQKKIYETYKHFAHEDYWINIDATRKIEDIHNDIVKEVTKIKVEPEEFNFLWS
Experiment: NADH-coupled (pyruvate kinase/lactate dehydrogenase) spectrophotometric TMP kinase assay, initial rates
Hi! Could you send only the number? It should be in µM, unit omitted.

Examples from the recorded data:
query: Can you look up the measured Ki of Nc1nc2c(nc(O)n2[C@H]2C[C@H](O)[C@@H](CO)O2)c(=O)[nH]1 [8-Hydroxy-2'-deoxyguanosine] for me?
result: 180

query: Can you share its Ki? I mean this compound: Nc1nc2c(ncn2[C@H]2C[C@H](O)[C@@H](CO)O2)c(=O)[nH]1
result: 270

Now look at this entry.
query: Param item = Nc1ncn([C@H]2C[C@H](OP(=O)(O)OC[C@H]3O[C@@H](n4cnc5c(=O)[nH]c(N)nc54)C[C@@H]3O)[C@@H](CO)O2)c(=O)n1 ; retrieve measured Ki.
result: 90
